Where these numbers come from: patent US20250312499A1

system: human kisspeptin receptor (Homo sapiens (Human))
protocol: Human KISS1R binding assay (membrane competition binding)
test-settings: 90 min at room temperature; competition with 0.2 nM [125I]-metastin (45-54); Flp-In T-Rex 293 kisspeptin membranes; metal complexes nonradioactive Ga, In, Lu; read-out: hKiSSR Binding Ki (90 min)
Numbered stars: 1 amine (or outer) side, 2 acyl side, 3 side chain; on linkers, the order of the positions; unused ones are H or OH. Square brackets hold non-standard residues; d marks the D form. Peptide text beside a SMILES is read from it. * marks the point of attachment. DOTA = O=C(O)CN1CCN(CC(=O)O)CCN(CC(=O)*)CCN(CC(=O)O)CC1; Gly(N-(3-F-4-Me-benzyl)) = Cc1ccc(CNCC(=O)*)cc1F; Acetyl(2-(HOCH2CH2OCH2CH2O)) = O=C(COCCOCCO)*; Gly(Nα-4-MeO-benzyl) = COc1ccc(CNCC(=O)*)cc1; Api(1-amidino) = N=C(N)N1CCC(N)(C(=O)O)CC1; Hydrocinnamoyl(4-I) = O=C(CCc1ccc(I)cc1)*; Phe(4-CN) = N#Cc1ccc(C[C@H](N)C(=O)O)cc1; Gly(Nα-CH2(4-Pyr)) = O=C(O)CNCc1ccncc1; Phe(3-F) = N[C@@H](Cc1cccc(F)c1)C(=O)O; d2Nal = N[C@H](Cc1ccc2ccccc2c1)C(=O)O; X1 = O=C(CN1CCC(N[*:1])CC1)[*:2]; Cha = N[C@@H](CC1CCCCC1)C(=O)O; X5 = O=C(CNCc1ccc2ccccc2c1)*; Octanoyl = CCCCCCCC(=O)*; Api = NC1(C(=O)O)CCNCC1; PEG2 = NCCOCCOCCC(=O)O; Ahx = NCCCCCC(=O)O; azaGly = NNC(=O)O
measurement-type: Ki

Worked examples, 4 molecules total:
1. CC(C)C[C@H](NC(=O)NNC(=O)[C@H](Cc1ccccc1)NC(=O)[C@@H](NC(=O)[C@H](CC(N)=O)NC(=O)[C@H](CCCCNC(=O)CN1CCN(CC(=O)O)CCN(CC(=O)O)CCN(CC(=O)O)CC1)NC(=O)[C@@H](Cc1ccc(O)cc1)NC(=O)CCOCCOCCNC(=O)CCc1ccc(I)cc1)[C@@H](C)O)C(=O)NC1(C(=O)N[C@@H](Cc2ccc(C#N)cc2)C(N)=O)CCN(C(=N)N)CC1 [Compound 325] ({Hydrocinnamoyl(4-I)-PEG2}-[dY]K(DOTA)NTF[azaGly]L[Api(1-amidino)][Phe(4-CN)]-NH2) ... < 0.01 µM
2. Cc1ccc(CNCC(=O)N2CCC(NC(=O)[C@H](CC(C)C)NC(=O)NNC(=O)[C@H](Cc3ccccc3)NC(=O)[C@@H](NC(=O)[C@H](CCC(=O)O)NC(=O)CN3CCC(NC(=O)CN4CCN(CC(=O)O)CCN(CC(=O)O)CCN(CC(=O)O)CC4)CC3)[C@@H](C)O)(C(=O)N[C@@H](Cc3c[nH]c4ccccc34)C(N)=O)CC2)cc1F [Compound 234] ({DOTA}-[X1]ETF[azaGly]L[Api](Gly(N-(3-F-4-Me-benzyl)))W-NH2) ... < 0.01 µM
3. COc1ccc(CNCC(=O)N2CCC(NC(=O)[C@H](CC(C)C)NC(=O)NNC(=O)[C@H](Cc3ccccc3)NC(=O)[C@@H](NC(=O)[C@H](CC(N)=O)NC(=O)[C@H](CCC(=O)O)NC(=O)CN3CCN(CC(=O)O)CCN(CC(=O)O)CCN(CC(=O)O)CC3)[C@@H](C)O)(C(=O)N[C@@H](Cc3ccccc3)C(N)=O)CC2)cc1 [Compound 237] ({DOTA}-ENTF[azaGly]L[Api](Gly(Nα-4-MeO-benzyl))F-NH2) ... < 0.01 µM
4. Cc1ccc(CNCC(=O)N2CCC(NC(=O)[C@H](CC(C)C)NC(=O)NNC(=O)[C@H](Cc3cccc(F)c3)NC(=O)[C@@H](NC(=O)[C@H](CC(N)=O)NC(=O)[C@H](CCC(=O)O)NC(=O)[C@@H](Cc3ccc(O)cc3)NC(=O)CN3CCC(NC(=O)CN4CCN(CC(=O)O)CCN(CC(=O)O)CCN(CC(=O)O)CC4)CC3)[C@@H](C)O)(C(=O)N[C@@H](Cc3c[nH]c4ccccc34)C(N)=O)CC2)cc1F [Compound 24] ({DOTA}-[X1][dY]ENT[Phe(3-F)][azaGly]L[Api](Gly(N-(3-F-4-Me-benzyl)))W-NH2) ... < 0.01 µM

Q. Lab note: need Ki for Cc1ccc(CNCC(=O)N2CCC(NC(=O)[C@H](CC(C)C)NC(=O)NNC(=O)[C@H](Cc3cccc(F)c3)NC(=O)[C@@H](NC(=O)[C@H](CC(N)=O)NC(=O)[C@H](CCC(=O)O)NC(=O)CN3CCC(NC(=O)CN4CCN(CC(=O)O)CCN(CC(=O)O)CCN(CC(=O)O)CC4)CC3)[C@@H](C)O)(C(=O)N[C@@H](Cc3c[nH]c4ccccc34)C(N)=O)CC2)cc1F [Compound 159] ({DOTA}-[X1]ENT[Phe(3-F)][azaGly]L[Api](Gly(N-(3-F-4-Me-benzyl)))W-NH2) on human kisspeptin receptor (Homo sapiens (Human)), anyone have it?
A. < 0.01 µM

Q. Lab request: please report Ki under test system human kisspeptin receptor (Homo sapiens (Human)) for CC(C)C[C@H](NC(=O)NNC(=O)[C@H](Cc1ccccc1)NC(=O)[C@@H](NC(=O)[C@H](CC(N)=O)NC(=O)[C@@H](Cc1ccc2ccccc2c1)NC(=O)[C@@H](Cc1ccc(O)cc1)NC(=O)CCCCCNC(=O)CN1CCN(CC(=O)O)CCN(CC(=O)O)CCN(CC(=O)O)CC1)[C@@H](C)O)C(=O)NC1(C(=O)N[C@H](Cc2c[nH]c3ccccc23)C(N)=O)CCN(C(=O)CNCc2ccncc2)CC1 [Compound 370] ({DOTA-Ahx}-[dY][d2Nal]NTF[azaGly]L[Api](Gly(Nα-CH2(4-Pyr)))[dW]-NH2)
A. > 0.1 µM

Q. Enter reported Ki observed with human kisspeptin receptor (Homo sapiens (Human)) for Cc1ccc(CNCC(=O)N2CCC(NC(=O)[C@H](CC(C)C)NC(=O)NNC(=O)[C@H](Cc3cccc(F)c3)NC(=O)[C@@H](NC(=O)[C@H](CC(N)=O)NC(=O)[C@H](CCCCNC(=O)CN3CCN(CC(=O)O)CCN(CC(=O)O)CCN(CC(=O)O)CC3)NC(=O)[C@@H](Cc3ccc(O)cc3)NC(=O)COCCOCCO)[C@@H](C)O)(C(=O)N[C@@H](Cc3c[nH]c4ccccc34)C(N)=O)CC2)cc1F [Compound 64] ({Acetyl(2-(HOCH2CH2OCH2CH2O))}-[dY]K(DOTA)NT[Phe(3-F)][azaGly]L[Api](Gly(N-(3-F-4-Me-benzyl)))W-NH2)
A. < 0.01 µM

Q. Request: Ki, test system human kisspeptin receptor (Homo sapiens (Human)), entry CCCCCCCC(=O)N[C@H](Cc1ccc(O)cc1)C(=O)N[C@H](Cc1c[nH]c2ccccc12)C(=O)N[C@@H](CC(N)=O)C(=O)N[C@H](C(=O)N[C@@H](CC1CCCCC1)C(=O)NNC(=O)N[C@@H](CC(C)C)C(=O)NC1(C(=O)N[C@@H](Cc2c[nH]c3ccccc23)C(N)=O)CCN(C(=O)CNCc2ccc(C)c(F)c2)CC1)[C@@H](C)O [Compound 405] (Octanoyl-[dY][dW]NT[Cha][azaGly]L[Api](Gly(N-(3-F-4-Me-benzyl)))W-NH2)
A. < 0.01 µM

Q. Can you look up Ki on human kisspeptin receptor (Homo sapiens (Human)) for CC(C)C[C@H](NC(=O)NNC(=O)[C@H](Cc1ccccc1)NC(=O)[C@@H](NC(=O)[C@H](CC(N)=O)NC(=O)[C@@H](Cc1ccc2ccccc2c1)NC(=O)[C@@H](Cc1ccc(O)cc1)NC(=O)CCCCCNC(=O)CN1CCN(CC(=O)O)CCN(CC(=O)O)CCN(CC(=O)O)CC1)[C@@H](C)O)C(=O)NC1(C(=O)N[C@H](Cc2c[nH]c3ccccc23)C(N)=O)CCN(C(=O)CNCc2ccc3ccccc3c2)CC1 [Compound 376] ({DOTA-Ahx}-[dY][d2Nal]NTF[azaGly]L[Api](X5)[dW]-NH2) ?
A. 0.01 to 0.1 µM

---

molecules and their reported pKi
system: human kisspeptin receptor (Homo sapiens (Human), UniProt Q969F8)
Sequence (Q969F8 whole entry): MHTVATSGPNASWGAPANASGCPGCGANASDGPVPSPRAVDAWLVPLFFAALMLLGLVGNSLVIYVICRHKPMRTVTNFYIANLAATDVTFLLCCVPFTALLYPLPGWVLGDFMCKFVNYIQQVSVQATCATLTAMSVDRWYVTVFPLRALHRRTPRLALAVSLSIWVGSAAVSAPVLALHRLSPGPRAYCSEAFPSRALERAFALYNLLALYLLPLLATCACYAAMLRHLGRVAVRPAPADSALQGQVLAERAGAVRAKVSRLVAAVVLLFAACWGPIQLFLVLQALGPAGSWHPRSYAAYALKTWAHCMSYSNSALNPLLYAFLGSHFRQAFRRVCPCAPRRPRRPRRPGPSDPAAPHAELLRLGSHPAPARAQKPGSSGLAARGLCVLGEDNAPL
protocol: Human KISS1R binding assay (membrane competition binding)
test-settings: 90 min at room temperature; competition with 0.2 nM [125I]-metastin (45-54); Flp-In T-Rex 293 kisspeptin membranes; metal complexes nonradioactive Ga, In, Lu; read-out: hKiSSR Binding Ki (90 min)
pKi: −log10 of the molar value. Square brackets hold non-standard residues; d marks the D form. Peptide text beside a SMILES is read from it. * marks the point of attachment. DOTA = O=C(O)CN1CCN(CC(=O)O)CCN(CC(=O)*)CCN(CC(=O)O)CC1; Ala(9-anthryl) = N[C@@H](Cc1c2ccccc2cc2ccccc12)C(=O)O; Gly(N-(3-F-4-Me-benzyl)) = Cc1ccc(CNCC(=O)*)cc1F; Api(1-amidino) = N=C(N)N1CCC(N)(C(=O)O)CC1; Phe(4-I) = N[C@@H](Cc1ccc(I)cc1)C(=O)O; 4Pal = N[C@@H](Cc1ccncc1)C(=O)O; Cha = N[C@@H](CC1CCCCC1)C(=O)O; 4Amb = NCc1ccc(C(=O)O)cc1; Api = NC1(C(=O)O)CCNCC1; Ahx = NCCCCCC(=O)O; azaGly = NNC(=O)O; Sar = CNCC(=O)O

Q. Value lookup for pKi; key = "Cc1ccc(CNCC(=O)N2CCC(NC(=O)c3ccnc(CNC(=O)[C@H](Cc4ccccc4)NC(=O)CCCCCNC(=O)CN4CCN(CC(=O)O)CCN(CC(=O)O)CCN(CC(=O)O)CC4)c3)(C(=O)N[C@@H](Cc3c[nH]c4ccccc34)C(N)=O)CC2)cc1F"
A. < 7.00

Q. What measured pKi goes with CC(C)C[C@H](NC(=O)NNC(=O)[C@H](Cc1ccc(I)cc1)NC(=O)[C@@H](NC(=O)[C@H](CC(N)=O)NC(=O)[C@H](Cc1c2ccccc2cc2ccccc12)NC(=O)[C@@H](Cc1ccc(O)cc1)NC(=O)CN1CCN(CC(=O)O)CCN(CC(=O)O)CCN(CC(=O)O)CC1)[C@@H](C)O)C(=O)NC1(C(=O)N[C@@H](Cc2ccncc2)C(N)=O)CCN(C(=N)N)CC1 [Compound 188] ({DOTA}-[dY][Ala(9-anthryl)]NT[Phe(4-I)][azaGly]L[Api(1-amidino)][4Pal]-NH2) ?
A. 7.00 to 8.00

Q. Return reported pKi; argument: Cc1ccc(CNCC(=O)N2CCC(NC(=O)[C@H](CC(C)C)NC(=O)CNC(=O)[C@H](Cc3ccccc3)NC(=O)CCCCCNC(=O)CN3CCN(CC(=O)O)CCN(CC(=O)O)CCN(CC(=O)O)CC3)(C(=O)N[C@@H](Cc3ccc(O)cc3)C(N)=O)CC2)cc1F [Compound 11] ({DOTA-Ahx}-FGL[Api](Gly(N-(3-F-4-Me-benzyl)))Y-NH2)
A. > 8.00

Q. Given the entry CNCC(=O)N1CCC(NC(=O)[C@H](CC(C)C)NC(=O)NNC(=O)[C@H](Cc2ccccc2)NC(=O)[C@@H](NC(=O)[C@H](CC(N)=O)NC(=O)[C@H](Cc2c3ccccc3cc3ccccc23)NC(=O)[C@@H](Cc2ccc(O)cc2)NC(=O)CN2CCN(CC(=O)O)CCN(CC(=O)O)CCN(CC(=O)O)CC2)[C@@H](C)O)(C(=O)N[C@@H](Cc2ccncc2)C(N)=O)CC1 [Compound 202] ({DOTA}-[dY][Ala(9-anthryl)]NTF[azaGly]L[Api](Sar)[4Pal]-NH2) , report its measured pKi.
A. 7.00 to 8.00

Q. Can you look up the measured pKi of Cc1ccc(CNCC(=O)N2CCC(NC(=O)[C@H](CC(C)C)NC(=O)NNC(=O)[C@H](CC3CCCCC3)NC(=O)[C@@H](NC(=O)[C@H](CC(N)=O)NC(=O)CCCCCNC(=O)CN3CCN(CC(=O)O)CCN(CC(=O)O)CCN(CC(=O)O)CC3)[C@@H](C)O)(C(=O)N[C@@H](Cc3c[nH]c4ccccc34)C(N)=O)CC2)cc1F [Compound 313] ({DOTA-Ahx}-NT[Cha][azaGly]L[Api](Gly(N-(3-F-4-Me-benzyl)))W-NH2) for me?
A. > 8.00

Q. pKi for Cc1ccc(CNCC(=O)N2CCC(NC(=O)[C@H](CC(C)C)NC(=O)NNC(=O)[C@H](Cc3ccncc3)NC(=O)[C@@H](NC(=O)[C@H](CC(N)=O)NC(=O)c3ccc(CNC(=O)CN4CCN(CC(=O)O)CCN(CC(=O)O)CCN(CC(=O)O)CC4)cc3)[C@@H](C)O)(C(=O)N[C@@H](Cc3ccncc3)C(N)=O)CC2)cc1F [Compound 259] ({DOTA-4Amb}-NT[4Pal][azaGly]L[Api](Gly(N-(3-F-4-Me-benzyl)))[4Pal]-NH2) ?
A. 7.00 to 8.00

Q. Any idea what pKi was measured for "Cc1ccc(CNCC(=O)N2CCC(NC(=O)c3cccc(OCCNC(=O)[C@H](Cc4ccccc4)NC(=O)CCCCCNC(=O)CN4CCN(CC(=O)O)CCN(CC(=O)O)CCN(CC(=O)O)CC4)c3)(C(=O)N[C@@H](Cc3c[nH]c4ccccc34)C(N)=O)CC2)cc1F" ?
A. 7.00 to 8.00
